- Experimental Target: MERS Mpro (Middle East respiratory syndrome-related coronavirus, UniProt K9N7C7)
- Sequence (K9N7C7 3248-3553 limits assumed): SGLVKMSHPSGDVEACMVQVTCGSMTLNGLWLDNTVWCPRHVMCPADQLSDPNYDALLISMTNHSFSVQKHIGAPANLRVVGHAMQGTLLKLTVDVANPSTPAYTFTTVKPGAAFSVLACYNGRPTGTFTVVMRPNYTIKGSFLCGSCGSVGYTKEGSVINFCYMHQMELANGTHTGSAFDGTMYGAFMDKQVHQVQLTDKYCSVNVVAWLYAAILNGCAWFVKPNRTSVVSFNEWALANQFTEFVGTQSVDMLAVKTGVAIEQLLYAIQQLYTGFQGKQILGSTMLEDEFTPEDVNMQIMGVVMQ
- Assay Procedure: biochemical
- Parameters: species or system MERS-CoV
pIC50: −log10 of the molar value.
Binary classification by pIC50, with 6 as an inclusive lower bound for fulfilled; all other cases are not fulfilled.

>>> discrete_label("CC1(C)[C@@H]2[C@@H](C(=O)N[C@H](C=O)C[C@@H]3CCNC3=O)N(C(=O)c3cc4ccc(F)cc4[nH]3)C[C@@H]21")
"fulfilled"
>>> discrete_label("CC1(C)[C@@H]2[C@@H](C(=O)N[C@H](C=O)C[C@@H]3CCNC3=O)N(C(=O)C3(c4ccccc4)CC3)C[C@@H]21")
"fulfilled"
>>> discrete_label("CC1(C)[C@@H]2[C@@H](C(=O)N[C@H](C=O)C[C@@H]3CCNC3=O)N(C(=O)c3cc4cc(Cl)ccc4[nH]3)C[C@@H]21")
"fulfilled"
>>> discrete_label("CC1(C)[C@@H]2[C@@H](C(=O)N[C@H](C=O)C[C@@H]3CCNC3=O)N(C(=O)c3cc4ccc(C#N)cc4[nH]3)C[C@@H]21")
"fulfilled"

Check this compound for pIC50 at or above 6: CC1(C)[C@@H]2[C@@H](C(=O)N[C@H](C=O)C[C@@H]3CCNC3=O)N(C(=O)C3(c4cccc(Cl)c4)CC3)C[C@@H]21
fulfilled

Tell me whether pIC50 is at least 6 here: CC(C)c1ccc(F)c2[nH]c(C(=O)N3C[C@H]4[C@@H]([C@H]3C(=O)N[C@H](C#N)C[C@@H]3CCNC3=O)C4(C)C)cc12
not fulfilled
